- assay details: chemical genetic growth profiling, strain panel (AID 1159580);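 also: tested at 20 µM; growth read once vehicle control cultures reached saturation at 30 °C; 1 = growth at the plate median or of vehicle wells; lower values mean less growth of the strain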
- assay setup: S. cerevisiae deletion strains, growth OD, locus YMR263W, strain SAP30, active compounds read low
Screen size: about 5,500 compounds; about 2,000 (36%) were called active. Not shown: some 18% with an inconclusive outcome. This is one part of the list.
readout type: normalized growth
Lab note: record the figure alone, no unit after it.

Sample answers from the record:
{"columns": ["compound", "test value"],
 "data": [
  ["OC(CNCCc1cccs1)COc1ccccc1 (stereo unspecified)", 0.99],
  ["Nc1nc2c(ncn2C2C[C@H](O)[C@@H](CO)O2)c(=O)[nH]1 (stereo partly specified)", 1.01],
  ["Nc1ncnc2c1ncn2C1O[C@H](COP(=O)(O)O)[C@@H](O)[C@H]1O (stereo partly specified)", 1.01],
  ["C=C(C)[C@H]1CC=C(C(=O)O)CC1", 0.952]
]}

Asked: Any idea what normalized growth was measured for Nc1ncnc2c1ncn2[C@@H]1O[C@H](COP(=O)(O)CP(=O)(O)OP(=O)(O)O)[C@H](O)C1O (stereo partly specified) ?
Given back: 1

Asked: Next entry: O=C(CCCCCCCCCCCCC1CCCC1)Nc1ccc(S(=O)(=O)c2ccc(NC(=O)CCCCCCCCCCCCC3CCCC3)cc2)cc1
Given back: 1.04

Asked: Next entry: O=[N+]([O-])c1cc([As](=O)(O)O)ccc1O
Given back: 0.99

Asked: Next entry: O=c1[nH]c(=O)n(C2C[C@@H](O)[C@@H](CO)O2)cc1F (stereo partly specified)
Given back: 1.05

Asked: Next entry: OCC1NCC(O)C(O)C1O (stereo unspecified)
Given back: 1.01

Asked: Next entry: O=C(CCNNC(=O)c1ccncc1)NCc1ccccc1
Given back: 0.994

Asked: Next entry: CC1CCN(C(=O)CC#N)CC1
Given back: 0.985

// provenance: PubChem BioAssay AID1159580
